The values you see were collected from ChEMBL document CHEMBL5726255.

# Target: Sodium channel protein type 9 subunit alpha (Homo sapiens)
# Sequence (Q15858 whole entry): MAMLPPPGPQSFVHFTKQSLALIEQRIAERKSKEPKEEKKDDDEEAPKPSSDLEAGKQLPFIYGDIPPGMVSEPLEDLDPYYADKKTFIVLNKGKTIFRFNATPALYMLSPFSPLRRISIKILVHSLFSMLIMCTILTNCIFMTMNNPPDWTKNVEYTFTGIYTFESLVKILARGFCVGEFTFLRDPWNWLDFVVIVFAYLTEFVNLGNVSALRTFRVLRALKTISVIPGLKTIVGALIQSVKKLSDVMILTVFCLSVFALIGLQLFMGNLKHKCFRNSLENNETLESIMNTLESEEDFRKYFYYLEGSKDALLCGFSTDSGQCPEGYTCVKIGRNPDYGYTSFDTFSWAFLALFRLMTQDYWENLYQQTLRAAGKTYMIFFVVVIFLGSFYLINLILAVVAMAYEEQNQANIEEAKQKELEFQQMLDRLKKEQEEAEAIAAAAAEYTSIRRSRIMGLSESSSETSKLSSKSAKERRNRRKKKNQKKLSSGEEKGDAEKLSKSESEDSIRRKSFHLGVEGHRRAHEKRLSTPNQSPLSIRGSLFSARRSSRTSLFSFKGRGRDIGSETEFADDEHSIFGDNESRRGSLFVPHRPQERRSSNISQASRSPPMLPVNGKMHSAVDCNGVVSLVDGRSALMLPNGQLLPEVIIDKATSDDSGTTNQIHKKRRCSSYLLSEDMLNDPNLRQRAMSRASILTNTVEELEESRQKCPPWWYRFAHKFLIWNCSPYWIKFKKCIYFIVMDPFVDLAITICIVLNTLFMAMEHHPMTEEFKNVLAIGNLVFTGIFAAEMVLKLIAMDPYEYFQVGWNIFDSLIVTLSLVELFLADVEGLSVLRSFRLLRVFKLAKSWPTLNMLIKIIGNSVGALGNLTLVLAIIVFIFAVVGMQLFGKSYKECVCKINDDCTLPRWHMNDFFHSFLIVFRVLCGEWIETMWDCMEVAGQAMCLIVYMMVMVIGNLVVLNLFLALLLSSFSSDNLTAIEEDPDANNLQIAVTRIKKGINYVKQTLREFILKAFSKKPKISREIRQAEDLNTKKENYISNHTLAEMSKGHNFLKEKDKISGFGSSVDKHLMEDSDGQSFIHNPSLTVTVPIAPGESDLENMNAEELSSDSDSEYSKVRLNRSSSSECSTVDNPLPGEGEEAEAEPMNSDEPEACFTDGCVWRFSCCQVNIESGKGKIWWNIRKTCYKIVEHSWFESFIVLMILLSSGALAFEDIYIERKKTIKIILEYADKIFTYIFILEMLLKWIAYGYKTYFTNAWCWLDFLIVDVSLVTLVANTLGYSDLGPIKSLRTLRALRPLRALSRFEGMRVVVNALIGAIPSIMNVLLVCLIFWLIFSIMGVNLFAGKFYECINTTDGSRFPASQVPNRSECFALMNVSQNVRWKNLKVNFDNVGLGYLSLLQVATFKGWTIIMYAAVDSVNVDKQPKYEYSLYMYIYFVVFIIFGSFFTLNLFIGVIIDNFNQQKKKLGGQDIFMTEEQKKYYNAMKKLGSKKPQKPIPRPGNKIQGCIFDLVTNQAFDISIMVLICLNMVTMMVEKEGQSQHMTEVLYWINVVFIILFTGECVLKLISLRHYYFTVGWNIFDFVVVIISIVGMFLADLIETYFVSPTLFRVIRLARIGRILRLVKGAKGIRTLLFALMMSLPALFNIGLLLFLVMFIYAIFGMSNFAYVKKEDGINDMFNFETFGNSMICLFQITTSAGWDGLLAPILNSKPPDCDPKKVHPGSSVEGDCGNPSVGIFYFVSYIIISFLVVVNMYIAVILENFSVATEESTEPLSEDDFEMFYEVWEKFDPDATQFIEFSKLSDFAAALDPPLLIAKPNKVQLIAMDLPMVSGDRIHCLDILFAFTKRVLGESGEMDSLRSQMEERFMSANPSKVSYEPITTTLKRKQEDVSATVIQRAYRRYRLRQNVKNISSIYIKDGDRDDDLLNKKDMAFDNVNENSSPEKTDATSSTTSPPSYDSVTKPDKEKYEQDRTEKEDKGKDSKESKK
# Method description: Nav 1.7 In Vitro Patch Express (PX) Assay: HEK 293 cells stably transfected with human Nav1.7 were recorded in whole cell voltage clamp mode with the PatchXpress automated electrophysiology system (Molecular Devices, LLC, Sunnyvale, Calif.). Compound effects were measured on a partially inactivated state of the sodium channel. Cells were clamped to a holding potential yielding 20 to 50% inactivation. To elicit sodium current, channels were activated by pulsing to −10 mV for 20 msec. This voltage protocol was repeated at a rate of 0.1 Hz throughout the experiment. A single concentration of test compound was applied to cells for a duration of 3 minutes. Peak sodium current was measured at the end of the compound addition period to determine percent inhibition. Three to five cells were tested per concentration, and IC50 curves were fitted to percent inhibition as a function of concentration.
pIC50: −log10 of the molar value.
Experimental endpoint: pIC50

Consider the following illustrative entries.
CS(=O)(=O)NC(=O)c1cc(F)c(-c2cnc(Oc3ccc(F)c4c3CCC4)c(Cl)c2)cc1F    7.02
Cc1cc(C(=O)NS(=O)(=O)C2CCC2)c(F)cc1-c1cnc(OC2CCC2)c(Cl)c1    7.13
CC(C)COc1ncc(-c2cc(F)c(C(=O)NS(C)(=O)=O)cc2F)cc1Br    6.25

(1) Cc1cc(C(=O)NS(C)(=O)=O)c(F)cc1-c1cnc(O[C@H](C)c2cc(Cl)ccc2Cl)c(Cl)c1
(2) COc1cc(C(=O)NS(C)(=O)=O)ccc1-c1cnc(Oc2c(Cl)ccc(Cl)c2C)c(C#N)c1
Request: Compare 1 and 2 by numeric pIC50 and name the larger one. // return label of chosen record
Result: 2
(2: 7.76, 1: 7.34)

---

# Target: Sodium channel protein type 5 subunit alpha (Homo sapiens, UniProt Q14524)
# Sequence (Q14524 whole entry): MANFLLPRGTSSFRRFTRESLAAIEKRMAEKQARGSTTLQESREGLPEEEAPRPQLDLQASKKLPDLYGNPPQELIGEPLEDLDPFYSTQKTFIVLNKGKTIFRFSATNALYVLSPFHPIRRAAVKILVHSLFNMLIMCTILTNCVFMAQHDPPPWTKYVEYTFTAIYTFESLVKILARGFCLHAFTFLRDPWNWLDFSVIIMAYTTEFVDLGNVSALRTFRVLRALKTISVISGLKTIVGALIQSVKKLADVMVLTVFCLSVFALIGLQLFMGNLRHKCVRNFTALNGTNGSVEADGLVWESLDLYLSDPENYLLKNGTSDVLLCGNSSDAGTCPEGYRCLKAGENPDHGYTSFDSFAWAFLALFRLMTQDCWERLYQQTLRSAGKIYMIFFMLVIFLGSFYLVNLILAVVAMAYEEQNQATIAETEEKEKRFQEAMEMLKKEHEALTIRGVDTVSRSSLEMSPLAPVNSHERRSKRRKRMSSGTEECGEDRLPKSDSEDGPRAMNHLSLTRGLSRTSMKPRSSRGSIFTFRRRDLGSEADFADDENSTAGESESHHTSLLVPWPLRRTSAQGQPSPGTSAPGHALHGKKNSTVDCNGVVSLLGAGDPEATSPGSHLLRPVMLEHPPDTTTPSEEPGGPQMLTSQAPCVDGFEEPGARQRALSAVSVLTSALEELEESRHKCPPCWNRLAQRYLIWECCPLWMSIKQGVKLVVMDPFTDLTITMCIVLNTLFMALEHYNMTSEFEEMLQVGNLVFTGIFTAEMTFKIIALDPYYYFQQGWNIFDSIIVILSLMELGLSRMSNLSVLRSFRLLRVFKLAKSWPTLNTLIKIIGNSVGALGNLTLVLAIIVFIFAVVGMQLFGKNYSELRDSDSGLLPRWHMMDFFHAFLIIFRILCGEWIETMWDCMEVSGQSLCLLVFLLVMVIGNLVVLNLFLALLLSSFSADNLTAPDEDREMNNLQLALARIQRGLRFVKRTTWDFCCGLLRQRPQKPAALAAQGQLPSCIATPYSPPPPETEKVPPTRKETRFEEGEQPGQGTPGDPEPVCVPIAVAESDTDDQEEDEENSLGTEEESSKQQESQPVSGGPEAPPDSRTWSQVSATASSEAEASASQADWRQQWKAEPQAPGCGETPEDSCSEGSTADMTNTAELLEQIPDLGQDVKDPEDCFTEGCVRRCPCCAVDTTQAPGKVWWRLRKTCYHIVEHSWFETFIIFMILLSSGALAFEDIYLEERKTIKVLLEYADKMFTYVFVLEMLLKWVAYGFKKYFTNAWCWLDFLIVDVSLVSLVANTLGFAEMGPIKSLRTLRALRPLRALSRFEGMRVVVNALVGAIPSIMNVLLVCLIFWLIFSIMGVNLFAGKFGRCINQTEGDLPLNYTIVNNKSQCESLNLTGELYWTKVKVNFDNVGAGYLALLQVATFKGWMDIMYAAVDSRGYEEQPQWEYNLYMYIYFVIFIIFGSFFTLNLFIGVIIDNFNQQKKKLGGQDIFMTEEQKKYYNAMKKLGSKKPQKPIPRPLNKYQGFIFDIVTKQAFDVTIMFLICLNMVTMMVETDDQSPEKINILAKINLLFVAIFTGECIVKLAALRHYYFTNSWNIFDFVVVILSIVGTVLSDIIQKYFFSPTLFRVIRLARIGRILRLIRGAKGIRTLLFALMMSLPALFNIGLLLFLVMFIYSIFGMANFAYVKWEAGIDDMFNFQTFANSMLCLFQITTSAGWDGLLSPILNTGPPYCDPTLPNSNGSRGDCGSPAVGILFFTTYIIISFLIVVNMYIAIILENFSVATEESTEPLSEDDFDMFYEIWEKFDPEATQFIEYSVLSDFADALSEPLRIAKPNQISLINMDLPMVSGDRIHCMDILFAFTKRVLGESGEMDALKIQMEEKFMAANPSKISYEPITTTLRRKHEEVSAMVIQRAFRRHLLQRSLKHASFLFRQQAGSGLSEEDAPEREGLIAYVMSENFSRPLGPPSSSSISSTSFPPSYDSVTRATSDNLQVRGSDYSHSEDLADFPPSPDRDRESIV
# Method description: Nav 1.5 In Vitro PX Assay: 293 cells stably transfected with human Nav 1.5 were recorded in whole cell voltage clamp mode with the PatchXpress automated electrophysiology system according the manufacturer's specifications (Molecular Devices, LLC, Sunnyvale, Calif.). Cells were held at a holding potential of −50 mV to inactivate sodium channels. To elicit sodium currents the voltage was changed to …
# Description: Nav 1.5 In Vitro PX Assay: 293 cells stably transfected with human Nav 1.5 were recorded in whole cell voltage clamp mode with the PatchXpress automated electrophysiology system according the manufacturer's specifications (Molecular Devices, LLC, Sunnyvale, Calif.). Cells were held at a holding potential of −50 mV to inactivate sodium channels. To elicit sodium currents the voltage was changed to −120 mV to recover a portion of the channels, followed by delivery of test pulses of 20 msec duration to 0 mV, at 0.1 Hz. A single concentration of test compound was applied to cells for a duration of 5 minutes. Peak sodium current was measured at the end of the compound addition period to determine percent inhibition. A minimum of two cells were tested per concentration.
pIC50: −log10 of the molar value.
Experimental endpoint: pIC50

Request: For the molecule Cc1cc(C(=O)NS(=O)(=O)C2CCC2)c(F)cc1-c1cnc(OC2CCC2)c(Cl)c1 , report pIC50.
Result: < 5.31
